Test system: HT-1080 (ATCC, CCL-121) cells
Assay Procedure: HT-1080 cell viability assay with ferroptosis inducer RSL3 (Cell Titer-Glo)
Format: cell-based
Conditions Used: Homo sapiens; HT-1080 cells treated with RSL3; 3-fold, 10-point dilution, 1.1 μM highest concentration; Table 2; read-out: EC50 (nM), ferroptosis inhibitory activity
EC50 values for the molecules below.

Solved entries (count: 5):
O=C1c2ccc(Nc3ccc(N4CCCCC4)cc3)cc2CN1CC1CC1 [Compound 185] | 0.1 to 100 nM
Cc1c(Nc2ccc3c(c2)OCC(=O)N3C)ccc(N2CCC(C(F)(F)F)CC2)c1F [Compound 63] | 0.1 to 100 nM
CCN(CCC(=O)OC)c1ccc(Nc2ccc3c(c2)n(C)c(=O)n3C)cc1 [Compound 361] | 100 to 1000 nM
CC1CN(c2ccc(Nc3ccc4nn(C)cc4c3)cc2)CC(C)O1 (stereo not drawn) [Compound 423] | 0.1 to 100 nM
CN1C(=O)COc2cc(Nc3ccc4c(c3)CCC4(C)C)ccc21 [Compound 42] | 0.1 to 100 nM

As a next step, examine the molecule that follows.
stdin: Report EC50 for CC1CN(c2ccc(Nc3ccc4c(c3)OCC(=O)N4)cc2)CC(C)O1 (stereo not drawn) [Compound 140] tested on HT-1080 (ATCC, CCL-121) cells.
stdout: 0.1 to 100 nM

The measurements presented in this section are drawn from patent US20240327393A1.
